# key: entry, value: ΔTi, transition 2
assayedSystem: IP3K-KD (human IP3K-KD A isoform, residues 187–461) (Homo sapiens, UniProt P23677)
Construct: human IP3K-KD A isoform (residues 187–461); GST (cleaved yes); made in house; host or cells: Escherichia coli BL21 star (DE3)
Sequence (P23677 187-461): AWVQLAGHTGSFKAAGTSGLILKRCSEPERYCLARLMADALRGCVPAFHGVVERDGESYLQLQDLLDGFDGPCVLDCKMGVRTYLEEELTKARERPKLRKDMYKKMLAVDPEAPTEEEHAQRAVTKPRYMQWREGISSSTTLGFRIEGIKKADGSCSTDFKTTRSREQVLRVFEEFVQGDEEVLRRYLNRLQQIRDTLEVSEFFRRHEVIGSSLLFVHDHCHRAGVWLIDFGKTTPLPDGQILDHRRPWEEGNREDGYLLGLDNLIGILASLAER
assayRemarks: Fluorescence thermal shift analysis (Tycho NT.6, inflection temperature Ti)
Assay type: binding
conditionSummary: Ti minus Ti of apo IP3K-KD (53.8); mean ± SD, n=3

Use the examples below as a reference point.
>  <compound>
O=P(O)(O)OC[C@H]1O[C@H](CO)[C@@H](OP(=O)(O)O)[C@H](OP(=O)(O)O)[C@H]1O [7b–s]

>  <ΔTi, transition 2>
0.6 ± 0.3 ºC

$$$$
>  <compound>
O=P(O)(O)O[C@@H]1[C@@H](O)[C@H](OP(=O)(O)O)[C@@H](OP(=O)(O)O)[C@H](OP(=O)(O)O)[C@H]1O [1-p]

>  <ΔTi, transition 2>
6.1 ± 0.2 ºC

$$$$

Problem: Need ΔTi, transition 2 of O=P(O)(O)O[C@@H]1[C@@H](O)[C@H](CO)[C@@H](OP(=O)(O)O)[C@H](OP(=O)(O)O)[C@H]1O (racemic) [5-s] , thanks.
Solution: 3.2 ± 0.2 ºC

Problem: Need ΔTi, transition 2 of O=P(O)(O)OC[C@@H]1O[C@H](CO)[C@@H](OP(=O)(O)O)[C@H](OP(=O)(O)O)[C@H]1O [7a–s] , thanks.
Solution: 2.3 ± 0.3 ºC

Problem: Need ΔTi, transition 2 of O=P(O)(O)O[C@@H]1O[C@H](CO)[C@@H](OP(=O)(O)O)[C@H](OP(=O)(O)O)[C@H]1O [6a–s, β-D-glucopyranosyl 1,3,4-trisphosphate] , thanks.
Solution: 3.5 ± 0.2 ºC

Problem: Need ΔTi, transition 2 of O=P(O)(O)O[C@@H]1[C@@H](O)[C@H](OP(=O)(O)O)C[C@@H](O)[C@H]1OP(=O)(O)O [3-s] , thanks.
Solution: 3.6 ± 0.2 ºC

Problem: Need ΔTi, transition 2 of CO[C@@H]1O[C@H](CO)[C@@H](O[C@H]2[C@H](O)[C@H](O)[C@@H](OP(=O)(O)O)[C@H](OP(=O)(O)O)[C@H]2O)[C@H]1OP(=O)(O)O [compound 9, D-chiro-inositol ribophostin] , thanks.
Solution: 0.7 ± 0.2 ºC

Problem: Need ΔTi, transition 2 of O=P(O)(O)O[C@@H]1[C@H](O)[C@H](O)[C@@H](OP(=O)(O)O)[C@H](OP(=O)(O)O)[C@H]1O [InsP3, D-myo-inositol 1,4,5-trisphosphate, reference compound] , thanks.
Solution: 4.4 ± 0.2 ºC

Problem: Need ΔTi, transition 2 of O=P(O)(O)O[C@@H]1[C@@H](O)[C@H](O)[C@@H](OP(=O)(O)O)[C@H](OP(=O)(O)O)[C@H]1O [1-s, L-scyllo-inositol 1,2,4-trisphosphate] , thanks.
Solution: 6.9 ± 0.2 ºC

Problem: Need ΔTi, transition 2 of O=P(O)(O)O[C@@H]1[C@H](O)[C@@H](O)[C@@H](OP(=O)(O)O)[C@H](OP(=O)(O)O)[C@H]1O [4-s, L-chiro-inositol 2,3,5-trisphosphate] , thanks.
Solution: 3.5 ± 0.2 ºC

Problem: Need ΔTi, transition 2 of O=P(O)(O)O[C@@H]1[C@@H](O)[C@@H](O)[C@@H](OP(=O)(O)O)[C@H](OP(=O)(O)O)[C@H]1O [2-s, D-myo-inositol 1,4,6-trisphosphate] , thanks.
Solution: 4.6 ± 0.2 ºC

Problem: Need ΔTi, transition 2 of O=P(O)(O)O[C@H]1O[C@H](CO)[C@@H](OP(=O)(O)O)[C@H](OP(=O)(O)O)[C@H]1O [6b–s, α-D-glucopyranosyl 1,3,4-trisphosphate] , thanks.
Solution: 0.8 ± 0.2 ºC
